Numbers sourced from patent US20030068615A1.

- target-or-test-system: HIV-1LAI envelope gp120 (Human immunodeficiency virus type 1 group M subtype B, UniProt P03377)
- Assay type: binding
- condition-description: STRL33 18-mer scan; background subtracted; second of two count columns
assay-endpoint: radioactive counts recorded in twenty minutes (counts)

| query-sequence | unit-of-measurement | value-measured |
| --- | --- | --- |
| DSSQEEHQAFLQFSKVFL [STRL33 segment 17-34] | counts | 2152.5 |
| LLIWVISLLVSLPQIIYG [STRL33 segment 153-170] | counts | 75.5 |
| MAVFLLTQMPFNLMKFIR [STRL33 segment 237-254] | counts | 2842.5 |
| HWEYYAMTSFHYTIMVTE [STRL33 segment 257-274] | counts | 3065.5 |
| TEAIAYLRACLNPVLYAF [STRL33 segment 273-290] | counts | 480.5 |
| KNFWKLVKDIGCLPYLGV [STRL33 segment 297-314] | counts | 82.5 |
| IFYHKLQSLTDVFLVNLP [STRL33 segment 57-74] | counts | 1256.5 |
| FNLDKLICGYHDEAISTV | counts | 1078.5 |
| TLGFFLPLLTMIVCYSVI | counts | 479.5 |
| PQIIYGNVFNLDKLICGY | counts | −37.5 |
| VIIKTLLHAGGFQKERSL | counts | 682.5 |
| TIMVTEAIAYLRACLNPV [STRL33 segment 269-286] | counts | 272.5 |
| GYHDEAISTVVLATQMTL | counts | 1181.5 |
| ACLNPVLYAFVSLKFRKN [STRL33 segment 281-298] | counts | 4515.5 |
| YGNVFNLDKLICGYHDEA | counts | −20.5 |
| LLGIYTINFYTSMLILTC | counts | 408.5 |
| VISLLVSLPQIIYGNVFN | counts | −127.5 |
| ATQMTLGFFLPLLTMIVC [STRL33 segment 193-210] | counts | 2444.5 |
| VDRFIVVVKATKAYNQQA | counts | 53.5 |
| FSKVFLPCMYLVVFVCGL [STRL33 segment 29-46] | counts | 633.5 |
| IRSTHWEYYAMTSFHYTI | counts | 1807.5 |
| AYNQQAKRMTWGKVTSLL [STRL33 segment 137-154] | counts | 4.5 |
| PFWAYAGIHEWVFGQVMC | counts | 7537.5 |
| GVSNQWKSSEDNSKTFSA [STRL33 segment 313-330] | counts | 306.5 |
| FGQVMCKSLLGIYTINFY | counts | 1354.5 |
| AFVSLKFRKNFWKLVKDI [STRL33 segment 289-306] | counts | 1040.5 |
| MPFNLMKFIRSTHWEYYA [STRL33 segment 245-262] | counts | 2182.5 |
| FLPCMYLVVFVCGLVGNS [STRL33 segment 33-50] | counts | 372.5 |
| AFLQFSKVFLPCMYLVVF [STRL33 segment 25-42] | counts | 1359.5 |
| LTDVFLVNLPLADLVFVC [STRL33 segment 65-82] | counts | 336.5 |
| IVVVKATKAYNQQAKRMT | counts | 43.5 |
| FLPLLTMIVCYSVIIKTL | counts | 1195.5 |
| MLILTCITVDRFIVVVKA | counts | 228.5 |
| GLVGNSLVLVISIFYHKL [STRL33 segment 45-62] | counts | 95.5 |
| KLQSLTDVFLVNLPLADL [STRL33 segment 61-78] | counts | 348.5 |
| FYTSMLILTCITVDRFIV [STRL33 segment 113-130] | counts | 907.5 |
| KLICGYHDEAISTVVLAT [STRL33 segment 177-194] | counts | 1604.5 |
